// values below are reported GI50
System: COLO 205
Assay: NCI tumour cell line growth inhibition, 48 h
Activity calls are given as the source filed them. Rule as the data show it: active = GI50 up to about 1.1 µM and inactive = higher.

| Structure smiles | Assayed target | GI50 |
| --- | --- | --- |
| CN(Cc1cnc2nc(N)nc(N)c2n1)c1ccc(C(=O)NCCS(=O)(=O)O)cc1 | COLO 205 | > 100 µM (inactive) |
| CC1=C(Nc2c(C)cc(O)cc2O)C(=O)C=c2oc3c(c21)C(C)=C(Nc1c(C)cc(O)cc1O)C(=O)C=3 | COLO 205 | 20.8 µM (inactive) |
| Cc1cc(=O)oc2c1cc1ccc3cccc4ccc2c1c34 | COLO 205 | > 100 µM (inactive) |

====

System: U-251
Assay: NCI tumour cell line growth inhibition, 48 h
Active and inactive are the calls of the source. Rule as the data show it: active = GI50 up to about 1.1 µM and inactive = higher.
Labels: active, inactive

| Compound | Class label |
| --- | --- |
| CC[C@H]1CC(=O)c2c(cc3c(c2O)C(=O)c2ccccc2C3=O)[C@@]1(C#N)C(=O)OC(C)(C)C | inactive |
| CC(CO)C1=CC(C#CCOCc2ccccc2)N(C(=O)Oc2ccccc2)c2ccccc21 (stereo not drawn) | inactive |
| COC(=O)NCCc1n[nH]c2c1C(=O)C=C(Nc1ccccc1)C2=O | inactive |
| COC(=O)c1ccccc1N(C(=O)c1ccccc1)c1ccccc1C | inactive |
| Cc1ccc([C@H]2CC(=O)C[C@H](c3ccc(C)cc3)C23C(=O)c2ccccc2C3=O)cc1 | inactive |
| N#Cc1c(-c2ccccc2)c(-c2ccccc2)cc2c(=O)c3ccc(Cl)cc3[nH]c12 | inactive |
| N#Cc1ccccc1NC(=O)/C(=N\Nc1ccc([N+](=O)[O-])cc1)C1C(=O)NC(=O)NC1=O | inactive |
| O=C(NN1C(=O)CSC1c1cccc(F)c1)c1ccncc1 (stereo not drawn) | inactive |
| Cc1cc2[nH]c3c(C#N)c4c(c(=O)n3c2cc1C)CCCC4 | inactive |
| O=C(c1ccco1)N1CCCN(C(=O)c2ccco2)C1=S | inactive |
| Cc1cc(=O)oc2cc(OS(C)(=O)=O)ccc12 | inactive |
| O=C(CC(=O)n1nc(-c2ccccc2)c(/N=N/c2ccc([N+](=O)[O-])cc2)c1-c1ccccc1)Nc1ccc(Cl)cc1 | inactive |
| CCOC(=O)/C=C/CC(C)(C)CCOC(C)=O | inactive |
| N#C/C(C(=S)Nc1ccccc1)=C(/N)N1CCCC1 | inactive |
| CC1(C2(C)OC(=O)c3ccccc32)OC(=O)c2ccccc21 (stereo not drawn) | inactive |
| OC(C1CO1)C(O)C1CO1 (stereo not drawn) | inactive |
| COc1ccccc1/C=C1\CCC(CCN(C)C)(C2=CCCC2)C1=O (stereo not drawn) | inactive |
| C=CCN1C(=O)CNC1=S | inactive |
| O=C1[C@@H]2C3c4ccccc4C([C@@H]2C(=O)N1c1ccccc1)S3(=O)=O | inactive |
| Cc1cc(O)nc(CNC(=O)c2ccc3ccccc3c2)n1 | inactive |
| COc1cc(/C=C2\N=C(c3ccccc3)N(C3Nc4cc5c(cc4S3)NC(N3C(=O)/C(=C/c4cc(OC)c(OC)c(OC)c4)N=C3c3ccccc3)S5)C2=O)cc(OC)c1OC (stereo not drawn) | inactive |
| COc1cc2c(c(O)c1O)-c1ccc(OC)c(=O)cc1C(NC(C)=O)CC2 (stereo not drawn) | inactive |
| CC1CC2=C(S(=O)(=O)c3ccccc3)CC(S(=O)(=O)c3ccccc3)(S(=O)(=O)c3ccccc3)CC21 (stereo not drawn) | inactive |
| COc1cc2cc(C(=O)N3CC(COS(C)(=O)=O)c4c3cc(N)c3ccccc43)[nH]c2c(OC)c1OC (stereo not drawn) | active |
| Cc1cc(=O)oc2c1cc1ccc3cccc4ccc2c1c34 | inactive |
| C=CC[C@@]1(OC(C)=O)C(=O)C(=O)OC1C1COC(C)(C)O1 (stereo partly drawn) | inactive |
| CN(CC(=O)O)c1ncc2c(n1)CCCC2 | inactive |
| CCOC(=O)c1c(-c2ccc(OC)cc2)c(C#N)c(=S)n(C2OC(COC(C)=O)C(OC(C)=O)C(OC(C)=O)C2OC(C)=O)c1-c1ccccc1 (stereo not drawn) | inactive |
| O=C(Cc1ccc(F)cc1)NC1=C(Cl)C(=O)c2ccccc2C1=O | inactive |
| Clc1ccc(/C(=C\c2ccccc2)Cn2ccnc2)cc1 | inactive |
| CC1N(O)C(c2ccccc2)C(c2ccccc2)=[N+]1[O-] (stereo not drawn) | inactive |
| COC(=O)c1ccc(C=C(C#N)C#N)cc1 | inactive |
| CC(C)[C@H]1C(=O)O[B@-](F)(c2ccccc2)/[N+]1=C\N(C)C | inactive |
| COC(=O)/C=C\C(C#N)(C#N)/N=C/c1sccc1C | inactive |
| O=c1c2ncn(COCCCl)c2n(-c2ccccc2)c(=S)n1-c1ccccc1 | inactive |
| CN1C(=O)C(C(=O)Nc2ccccn2)C2C[C@@]1(C)Oc1ccccc12 (stereo partly drawn) | inactive |
| C[N+](C)(CCNc1ccc(NCC[N+](C)(C)Cc2ccc([N+](=O)[O-])cc2)c2c1C(=O)c1ccccc1C2=O)Cc1ccc([N+](=O)[O-])cc1 | inactive |
| CN1C/C(=C\c2cccs2)C2=NN(c3ccccc3)C(c3cccs3)C2C1 (stereo not drawn) | inactive |
| CN1CN(c2ccccc2)C2(CCN(CCCSc3ccccc3NC(=O)/C=C/c3ccccc3)CC2)C1=O | inactive |
| COC1=CC(=O)C2(C=C1OC)OC[C@H]1Oc3c(ccc4c3C=CC(C)(C)O4)C(=O)[C@H]12 (stereo partly drawn) | inactive |
| c1ccc(C/C(=N\Nc2nc3ccccc3[nH]2)c2ccccn2)cc1 | active |
| COc1cc(C2C(Cl)C(=O)N2c2ccc(Br)cc2)cc(I)c1O (stereo not drawn) | inactive |
| COc1ccc(/C=C/C(=O)c2nc3ccccc3[nH]2)cc1 | inactive |

====

Test system: SF-268
Experiment: NCI tumour cell line growth inhibition, 48 h
The source made the active and inactive calls. Cut-off read from the data, not from the text of the source: active = GI50 up to about 1.1 µM and inactive = higher.
Labels: Yes = active, No = inactive

| Compound | Class label |
| --- | --- |
| COc1ccc2oc(C(=O)N3CC(CCl)c4ccc(N)cc43)cc2c1 (stereo not given) | Yes |
| CNC(=O)C(C)NC(=O)C(Cc1ccccc1)NC(=O)c1ccccc1 (stereo not given) | No |
| C=C1C(=O)OC2C1C(OC(=O)/C(=C/C)COC(C)=O)CC1(CO1)C1C(OC(=O)/C(=C/C)CO)C=C(C)C21 (stereo not given) | No |
| CC1=C(O)C(=O)C[C@]2(C)[C@H]3CC=C4[C@@H]5CC(C)(C)CC[C@@H]5C(=O)[C@H](O)[C@@]4(C)[C@]3(C)CC[C@@H]12 | No |
| NNC(=O)CC(=O)Nc1ccccc1Cl | No |
| CCc1n[nH]c(=O)n1N1C(=O)CCC1=O | No |
| Cc1n[nH]c(CC#N)n1 | No |
| C=CC[C@@]1(OC(C)=O)C(=O)C(=O)OC1C1COC(C)(C)O1 (stereo not given in full) | No |
| O=C1CSC(c2cccc(Cl)c2)N1c1c(O)c(Cl)cc(Br)c1Cl (stereo not given) | No |
| O=C(O)c1c(Br)c(Br)c(Br)c(Br)c1C1c2ccc(O)cc2Oc2cc(O)ccc21 | No |

====

Test system: SR
Assay: NCI tumour cell line growth inhibition, 48 h
The source made the active and inactive calls. No stated cut-off is given here; in the data, active = GI50 up to about 1.1 µM and inactive = higher.

| Compound | GI50 |
| --- | --- |
| COc1ccc2c(c1)O[C@@H]1c3ccc(OC)cc3OC[C@H]21 | 22.9 µM (inactive) |
| O=C=NCCCCCCN1C(=O)N2C(c3ccccc3)N(CCCCCCN=C=O)C(=O)N2C1c1ccccc1 (stereo not given) | 65.2 µM (inactive) |
| O=c1c2ncn(COCCCl)c2n(-c2ccccc2)c(=S)n1-c1ccccc1 | > 100 µM (inactive) |
| CN1CN(c2ccccc2)C2(CCN(CCCSc3ccccc3NC(=O)/C=C/c3ccccc3)CC2)C1=O | 2.1 µM (inactive) |
| CN(C)C=C1C(=O)N(C)C(=O)N(C)C1=O | > 100 µM (inactive) |
| COC(=O)NCCc1n[nH]c2c1C(=O)C=C(OC)C2=O | 15 µM (inactive) |
| COc1ccccc1N1C(=O)/C(=C\c2cc(OC)c(OC)c(OC)c2)SC1c1ccccc1 (stereo not given) | 13.3 µM (inactive) |
| CCn1c(C)nc([N+](=O)[O-])c1Sc1ncc[nH]1 | 23.3 µM (inactive) |
| C=C/C=C(\NC(=O)C(Cl)(Cl)Cl)[Si](C)(C)C | > 100 µM (inactive) |
| Cc1cc(C)c([O-])c(-[n+]2c(-c3ccccc3)cc(-c3ccccc3)cc2-c2ccccc2)c1 | 2.6 µM (inactive) |

====

Test system: OVCAR-5
Assay: NCI tumour cell line growth inhibition, 48 h
Calls of active or inactive are those of the source. Rule as the data show it: active = GI50 up to about 1.1 µM and inactive = higher.

| Compound | GI50 |
| --- | --- |
| Cc1c(CCN2CCOCC2)c(N2CCOCC2)n2c(nc3ccccc32)c1C#N | > 10 µM (inactive) |
| CCOC(=O)C(=CN1CCNC1=S)C(=O)OCC | > 100 µM (inactive) |
| Cn1ncc2c(Cl)ncnc21 | > 100 µM (inactive) |
| O=C(N/C(=C\c1ccc(Cl)cc1)c1nc2ccccc2[nH]1)c1ccccc1 | 37.2 µM (inactive) |
| c1ccc2c(c1)Nc1c3ccccc3nc3cccc-2c13 | 1.43 µM (inactive) |
| CN(Cc1cnc2nc(N)nc(N)c2n1)c1ccc(C(=O)NCCS(=O)(=O)O)cc1 | > 100 µM (inactive) |
| O=C1c2ccccc2C2(c3ccc(Cl)cc3)N[C@@H]3CCCC[C@@H]3N12 (stereo not given in full) | > 100 µM (inactive) |
| O=C1c2cc([N+](=O)[O-])sc2C(=O)c2c([N+](=O)[O-])csc21 | 1.65 µM (inactive) |
| COc1cc(C2SCC(=O)N2NC(=O)c2ccc(NC(C)=O)cc2OC)ccc1O (stereo not given) | 23.1 µM (inactive) |
| C=C(C)[C@]12CC(C)C34OC(/C=C\C=C\CCCCCCCCC)(O[C@@H]1[C@@H]3[C@@H]1O[C@]1(CO)[C@@H](O)[C@]1(O)C(=O)C(C)=C[C@@H]41)O2 (stereo not given in full) | 17.1 µM (inactive) |
